These entries and their values trace back to ChEMBL document CHEMBL1148594.

This section presents molecules with their documented Selectivity ratio values.
target: Cannabinoid receptor (Homo sapiens) (UniProt P34972+P21554); assay: Selectivity ratio of human CB2 receptor versus human CB1 receptor in human; format: protein assay
Sequence (P21554 whole entry, looked up): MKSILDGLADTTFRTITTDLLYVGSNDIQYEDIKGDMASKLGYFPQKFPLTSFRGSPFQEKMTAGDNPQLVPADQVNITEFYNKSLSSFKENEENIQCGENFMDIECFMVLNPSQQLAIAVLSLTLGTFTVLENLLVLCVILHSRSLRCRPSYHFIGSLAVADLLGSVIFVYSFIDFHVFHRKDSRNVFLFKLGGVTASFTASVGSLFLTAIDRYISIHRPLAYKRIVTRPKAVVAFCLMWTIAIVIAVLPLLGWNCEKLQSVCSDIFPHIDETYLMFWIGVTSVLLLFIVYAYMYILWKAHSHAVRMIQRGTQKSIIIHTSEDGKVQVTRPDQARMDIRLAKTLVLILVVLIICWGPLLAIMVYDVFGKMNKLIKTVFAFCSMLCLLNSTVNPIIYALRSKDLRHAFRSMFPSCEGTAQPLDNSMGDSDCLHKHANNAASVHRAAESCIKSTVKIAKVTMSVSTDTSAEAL
Sequence (P34972 whole entry, looked up): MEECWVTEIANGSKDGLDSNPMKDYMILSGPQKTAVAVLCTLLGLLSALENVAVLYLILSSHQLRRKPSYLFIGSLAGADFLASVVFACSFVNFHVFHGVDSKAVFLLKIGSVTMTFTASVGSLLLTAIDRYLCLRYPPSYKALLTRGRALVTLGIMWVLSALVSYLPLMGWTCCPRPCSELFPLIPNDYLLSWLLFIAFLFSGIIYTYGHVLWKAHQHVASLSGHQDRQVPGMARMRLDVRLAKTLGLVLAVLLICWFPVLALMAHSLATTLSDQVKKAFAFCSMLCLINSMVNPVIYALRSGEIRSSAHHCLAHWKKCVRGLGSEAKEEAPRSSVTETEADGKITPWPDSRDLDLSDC
Give the value as a plain number.

Known Selectivity ratio results, listed for orientation:
INSERT INTO measurements (molecule, experimental_endpoint, measured) VALUES
  ('CCCCCn1cc(C(=O)NC2C3CC4CC(C3)CC2C4)c(=O)c2ccccc21 (centres undefined)', 'Selectivity ratio', 143),
  ('CCCCCn1cc(C(=O)Nc2cccc3ccccc23)c(=O)c2ccccc21', 'Selectivity ratio', 11),
  ('CCCCCn1cc(C(=O)NC2CCCc3ccccc32)c(=O)c2ccccc21 (racemic)', 'Selectivity ratio', 17);

Consider the record given below.
### Prompt Entry under review: CCCCCn1cc(C(=O)N[C@H](C)c2ccccc2)c(=O)c2ccccc21 . Reported Selectivity ratio?
### Response 31
